experiment: 14-day repeat-dose GLP toxicology study; conditions: cynomolgus monkey, in vivo, 20 mg/kg, Plasma AUC0-24 Day 1
Residues, ends and D or L forms follow the SMILES beside them.

[
  {
    "Compound": "CC[C@@H]1NC(=O)[C@@H](CC(C)C)NC(=O)[C@H](CCN)NC(=O)[C@@H](NC(=O)[C@H](CN)NC(=O)[C@@H](NC(=O)[C@H](CCN)NC(=O)c2ccc(Cl)cc2Cl)[C@@H](C)O)CCNC(=O)[C@H]([C@@H](C)O)NC(=O)[C@H](CCN)NC(=O)[C@H](CCN)NC1=O [Lipopeptide F365] (HELM PEPTIDE1{[O=C(c1ccc(Cl)cc1Cl)[*:2]].[Dab].T.[NC[C@H](N[*:1])C(=O)[*:2]].[Dab].[Dab].[dL].[Abu].[Dab].[Dab].T}$PEPTIDE1,PEPTIDE1,5:R3-11:R2$$$V2.0)",
    "AUC(0-t)": "97200 ng·h/mL"
  }
]

---

Each entry below carries its reported Log10 CFU/mL blood at 4 h, Mean.
test system: P. aeruginosa ATCC 27853; assay: Neutropenic mouse bloodstream infection model; format: in vivo; conditions: single IV dose 4 mg/kg, 4 h
Residues, ends and D or L forms follow the SMILES beside them.
Endpoint name: Log10 CFU/mL blood at 4 h, Mean (Log10 CFU/mL blood)

[
  {
    "Molecule": "CCCCCCCC(=O)N[C@@H](CCN)C(=O)N[C@H](C(=O)N[C@@H](CCN)C(=O)N[C@H]1CCNC(=O)[C@H]([C@@H](C)O)NC(=O)[C@H](CCN)NC(=O)[C@H](CCN)NC(=O)[C@H](CC)NC(=O)[C@@H](CC(C)C)NC(=O)[C@H](CCN)NC1=O)[C@@H](C)O [Lipopeptide F319] (HELM PEPTIDE1{[CCCCCCCC(=O)[*:2]].[Dab].T.[Dab].[Dab].[Dab].[dL].[Abu].[Dab].[Dab].T}$PEPTIDE1,PEPTIDE1,5:R3-11:R2$$$V2.0)",
    "Target under test": "P. aeruginosa ATCC 27853",
    "Endpoint name": "Log10 CFU/mL blood at 4 h, Mean",
    "Unit info": "Log10 CFU/mL blood",
    "Numeric result": 4.01
  },
  {
    "Molecule": "CCCCCCCC(=O)N[C@@H](CCN)C(=O)N[C@H](C(=O)N[C@@H](CCN)C(=O)N[C@H]1CCNC(=O)[C@H]([C@@H](C)O)NC(=O)[C@H](CCN)NC(=O)[C@H](CCN)NC(=O)[C@H](C)NC(=O)[C@@H](CC(C)C)NC(=O)[C@H](CCN)NC1=O)[C@@H](C)O [Lipopeptide F124] (HELM PEPTIDE1{[CCCCCCCC(=O)[*:2]].[Dab].T.[Dab].[Dab].[Dab].[dL].A.[Dab].[Dab].T}$PEPTIDE1,PEPTIDE1,5:R3-11:R2$$$V2.0)",
    "Target under test": "P. aeruginosa ATCC 27853",
    "Endpoint name": "Log10 CFU/mL blood at 4 h, Mean",
    "Unit info": "Log10 CFU/mL blood",
    "Numeric result": 4.53
  },
  {
    "Molecule": "CCCCCCCC(=O)N[C@@H](CCN)C(=O)N[C@H](C(=O)N[C@@H](CCN)C(=O)N[C@H]1CCNC(=O)[C@H]([C@@H](C)O)NC(=O)[C@H](CCN)NC(=O)[C@H](CCN)NC(=O)[C@H](CO)NC(=O)[C@@H](CC(C)C)NC(=O)[C@H](CCN)NC1=O)[C@@H](C)O [Lipopeptide F227] (HELM PEPTIDE1{[CCCCCCCC(=O)[*:2]].[Dab].T.[Dab].[Dab].[Dab].[dL].S.[Dab].[Dab].T}$PEPTIDE1,PEPTIDE1,5:R3-11:R2$$$V2.0)",
    "Target under test": "P. aeruginosa ATCC 27853",
    "Endpoint name": "Log10 CFU/mL blood at 4 h, Mean",
    "Unit info": "Log10 CFU/mL blood",
    "Numeric result": 6.47
  },
  {
    "Molecule": "CC[C@@H]1NC(=O)[C@@H](CC(C)C)NC(=O)[C@H](CCN)NC(=O)[C@@H](NC(=O)[C@H](CN)NC(=O)[C@@H](NC(=O)[C@H](CCN)NC(=O)c2cccc(Cl)c2)[C@@H](C)O)CCNC(=O)[C@H]([C@@H](C)O)NC(=O)[C@H](CCN)NC(=O)[C@H](CCN)NC1=O [Lipopeptide F371] (HELM PEPTIDE1{[O=C(c1cccc(Cl)c1)[*:2]].[Dab].T.[NC[C@H](N[*:1])C(=O)[*:2]].[Dab].[Dab].[dL].[Abu].[Dab].[Dab].T}$PEPTIDE1,PEPTIDE1,5:R3-11:R2$$$V2.0)",
    "Target under test": "P. aeruginosa ATCC 27853",
    "Endpoint name": "Log10 CFU/mL blood at 4 h, Mean",
    "Unit info": "Log10 CFU/mL blood",
    "Numeric result": 4.61
  },
  {
    "Molecule": "CC[C@@H]1NC(=O)[C@@H](CC(C)C)NC(=O)[C@H](CCN)NC(=O)[C@@H](NC(=O)[C@H](CN)NC(=O)[C@@H](NC(=O)[C@H](CCN)NC(=O)c2ccccc2)[C@@H](C)O)CCNC(=O)[C@H]([C@@H](C)O)NC(=O)[C@H](CCN)NC(=O)[C@H](CCN)NC1=O [Lipopeptide F379] (HELM PEPTIDE1{[O=C(c1ccccc1)[*:2]].[Dab].T.[NC[C@H](N[*:1])C(=O)[*:2]].[Dab].[Dab].[dL].[Abu].[Dab].[Dab].T}$PEPTIDE1,PEPTIDE1,5:R3-11:R2$$$V2.0)",
    "Target under test": "P. aeruginosa ATCC 27853",
    "Endpoint name": "Log10 CFU/mL blood at 4 h, Mean",
    "Unit info": "Log10 CFU/mL blood",
    "Numeric result": 5.27
  },
  {
    "Molecule": "CCCCCC(=O)N[C@@H](CCN)C(=O)N[C@H](C(=O)N[C@@H](CN)C(=O)N[C@H]1CCNC(=O)[C@H]([C@@H](C)O)NC(=O)[C@H](CCN)NC(=O)[C@H](CCN)NC(=O)[C@H](CC)NC(=O)[C@@H](CC(C)C)NC(=O)[C@H](CCN)NC1=O)[C@@H](C)O [Lipopeptide F342] (HELM PEPTIDE1{[CCCCCC(=O)[*:2]].[Dab].T.[NC[C@H](N[*:1])C(=O)[*:2]].[Dab].[Dab].[dL].[Abu].[Dab].[Dab].T}$PEPTIDE1,PEPTIDE1,5:R3-11:R2$$$V2.0)",
    "Target under test": "P. aeruginosa ATCC 27853",
    "Endpoint name": "Log10 CFU/mL blood at 4 h, Mean",
    "Unit info": "Log10 CFU/mL blood",
    "Numeric result": 7.44
  }
]
